Numbers sourced from PubChem BioAssay AID1159580.

test: chemical genetic growth profiling, strain panel (AID 1159580);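 also: tested at 20 µM; growth read once vehicle control cultures reached saturation at 30 °C; 1 = growth at the plate median or of vehicle wells; lower values mean less growth of the strain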; settings: S. cerevisiae deletion strains, growth OD, locus YNL298W, strain CLA4, stronger effect = lower value
Out of some 5,500 compounds screened, about 2,000 (36%) were called active. Roughly 18% stayed inconclusive and do not appear here. The list shows a part of the results.
ATTRIBUTE MEASURED: normalized growth
Answer with a number only.

Please report the measured normalized growth for CN(C)C(=O)Nc1ccc(Cl)c(Cl)c1
0.998

Given the molecule CCC(=O)Nc1ccc(Cl)c(Cl)c1 , write its reported normalized growth.
0.995

Consider the molecule C=C1C2=CC(=O)O[C@@H](c3ccoc3)[C@]2(C)CCC1[C@@]1(C)C=CC(=O)C(C)(C)[C@@H]1CC(=O)OC (some centres undefined) and give its recorded normalized growth.
0.988

Respond only with normalized growth recorded for COC(=O)CCC(=O)O[C@H]1CCC2(C)C(CCC3C2C(=O)[C@@H](O)C2(C)C3CC3OC4(CCC(C)CO4)[C@@H](C)C32)C1 (some centres undefined)
0.985

Look up normalized growth of N[C@@H]1[C@@H](O)[C@H](O)[C@@H](CO)O[C@H]1O and report it.
1.01

Dear colleague, please send me the reported normalized growth for COc1ccc(C(=O)CC(=O)c2ccc(C(C)(C)C)cc2)cc1 when you can.
1.02

Read off the recorded normalized growth for Nc1ccn(C2O[C@H](CO)[C@@H](O)[C@H]2O)c(=O)n1 (some centres undefined)
1

Let me know recorded normalized growth for NC(N)=NCCCC(NC(=O)C(N)Cc1ccc(O)cc1)C(=O)O (centres undefined) , thanks.
0.995

For CN[C@@H]1[C@H](OC2[C@H](O[C@H]3[C@H](O)[C@@H](O)[C@H](N=C(N)N)[C@@H](O)[C@@H]3N=C(N)N)O[C@@H](C)[C@]2(O)C=O)O[C@@H](CO)[C@H](O)[C@H]1O (some centres undefined) , write its normalized growth.
1.02
